Target: T1, corticotropin releasing factor 2 receptor
T1 sequence (Q13324 whole entry, species assumed, looked up): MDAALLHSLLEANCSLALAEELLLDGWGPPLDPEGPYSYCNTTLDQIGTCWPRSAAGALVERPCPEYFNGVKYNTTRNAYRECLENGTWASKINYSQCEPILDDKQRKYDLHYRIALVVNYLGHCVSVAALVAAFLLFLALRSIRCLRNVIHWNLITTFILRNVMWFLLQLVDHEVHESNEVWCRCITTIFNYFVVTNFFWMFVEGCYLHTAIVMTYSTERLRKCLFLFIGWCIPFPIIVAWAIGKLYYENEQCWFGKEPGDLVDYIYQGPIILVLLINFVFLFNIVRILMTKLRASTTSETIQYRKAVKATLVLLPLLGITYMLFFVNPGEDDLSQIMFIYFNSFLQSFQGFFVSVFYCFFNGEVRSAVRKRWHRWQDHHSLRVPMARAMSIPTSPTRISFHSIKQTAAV
Test: cell-based or functional assay
Ends that are not written are not given here.
Catalogue of CRF2R Emax % readings, one per entry.

Binder	CRF2R Emax % (%)
ZGPPISIDLPLELLRKMIEIEKQEKEKQQAANNALLLATI (C-terminal amide) [SEQ ID NO 234]	100
ZGPPISIDLPLELLRKMIEIEKQEKEKQQAANNALLLDTI (C-terminal amide) [SEQ ID NO 235]	100
DNPSLSIDLPLFLLRTLLELARTQSQRERAEQNARIFARV-NH2 [SEQ ID NO 329]	98.3
ZGPPISIDLPTALLRKMIEIEKQEKEKQQAANNRLLLDTI (not fully specified; C-terminal amide) [SEQ ID NO 301]	88.4
ZGPPISIDLPLALLRKMIEIEKQEKEKQQAANNRLLLDTI (not fully specified; C-terminal amide) [SEQ ID NO 308]	72.8
ZGPPISIDVPYWLLRKVIEIEKQEKEKQQAANNARLLDTI (C-terminal amide) [SEQ ID NO 372]	100

Where do these numbers come from? They come from patent US20030148956A1.
